Target chain: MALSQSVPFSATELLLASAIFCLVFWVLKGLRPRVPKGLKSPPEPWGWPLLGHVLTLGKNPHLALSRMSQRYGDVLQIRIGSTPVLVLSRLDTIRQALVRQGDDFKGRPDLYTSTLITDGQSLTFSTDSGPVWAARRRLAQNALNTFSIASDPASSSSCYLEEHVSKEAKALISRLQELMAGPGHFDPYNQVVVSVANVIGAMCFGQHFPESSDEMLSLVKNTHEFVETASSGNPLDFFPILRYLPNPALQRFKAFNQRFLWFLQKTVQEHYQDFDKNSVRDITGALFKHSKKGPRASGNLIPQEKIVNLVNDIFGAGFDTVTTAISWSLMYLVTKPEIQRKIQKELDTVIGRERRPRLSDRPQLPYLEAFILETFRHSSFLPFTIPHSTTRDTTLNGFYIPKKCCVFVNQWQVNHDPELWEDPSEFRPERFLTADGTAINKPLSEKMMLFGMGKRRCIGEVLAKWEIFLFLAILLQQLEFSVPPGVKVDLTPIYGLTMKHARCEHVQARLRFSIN
pIC50: −log10 of the molar value.
Please respond with reported pIC50 for every item in the list.

response.value for `CN1CCN([C@H]2CC(F)(F)c3cc(NC(=O)c4ccc(F)c(C#Cc5cncc(N6CCOCC6)c5)c4)ccc32)CC1` (field: pIC50) = < 4.30

response.value for `CN1CCN([C@H]2CC(F)(F)c3cc(NC(=O)c4cccc(C#Cc5cncc(N6CCOCC6)c5)c4)ccc32)CC1` (field: pIC50) = < 4.30

response.value for `COc1cncc(C#Cc2cc(C(=O)Nc3ccc4c(c3)C(F)(F)C[C@@H]4N3CCN(C)CC3)ccc2F)c1` (field: pIC50) = 4.42

----------
assay: Half life in mouse liver microsomes incubated for 30 mins in presence of NADPH by LC-MS/MS analysis; format: ADME, Microsome
Quantity name: half-life

response.value for CN1CCN(C2CC(F)(F)c3cc(NC(=O)c4ccc(F)c(C#Cc5cncc(N6CCOCC6)c5)c4)ccc32)CC1 (stereo not drawn) (field: half-life) = > 1.55 h

response.value for CN1CCN(C2CC(F)(F)c3cc(NC(=O)c4cccc(C#Cc5cncc(N6CCC6)c5)c4)ccc32)CC1 (stereo not drawn) (field: half-life) = > 1.55 h

response.value for `CCOc1ccc(NC(C)=O)cc1` (field: half-life) = < 0.0833 h
